Hello, the source for this data is the Immune Epitope Database (IEDB), in case you need it.

Provide the reported IC50 of each item.
# tgt: HLA-A*02:03
# test-method-notes: IEDB peptide-MHC binding, purified MHC/competitive/radioactivity; bounds were set here for any values at or beyond the usual limits of such assays
# condition-parameters: source organism: Hepatitis B virus
# unit: nM | format: bare number

Data request: Identify IC50 associated with the sequence `SILSPFLPLL`
Data returned: 16

Data request: Identify IC50 associated with the sequence `SLYADSPSV`
Data returned: 3.4

Data request: Identify IC50 associated with the sequence `SLYSILSPFL`
Data returned: 13

Data request: Identify IC50 associated with the sequence `FLLAQFTSAI`
Data returned: 0.31

Data request: Identify IC50 associated with the sequence `FLGPLLVLQA`
Data returned: 160

Data request: Identify IC50 associated with the sequence `YLVSFGVWI`
Data returned: 311

Data request: Identify IC50 associated with the sequence `YQGMLPVCPL`
Data returned: 20

Data request: Identify IC50 associated with the sequence `FLFILLLCLI`
Data returned: 1980

Data request: Identify IC50 associated with the sequence `HLYSHPIIL`
Data returned: 18

Data request: Identify IC50 associated with the sequence `LLPIFFCLWV`
Data returned: 15

Data request: Identify IC50 associated with the sequence `FIIFLFILL`
Data returned: 1050

Data request: Identify IC50 associated with the sequence `FLFILLLCL`
Data returned: 1570

Data request: Identify IC50 associated with the sequence `YMDDVVLGA`
Data returned: 1290

Data request: Identify IC50 associated with the sequence `CLIFLLVLL`
Data returned: 659

Data request: Identify IC50 associated with the sequence `FIIFLFILLL`
Data returned: 181

Data request: Identify IC50 associated with the sequence `WMMWYWGPSL`
Data returned: 68

Data request: Identify IC50 associated with the sequence `FLAPLPIHTA`
Data returned: 0.28

Data request: Identify IC50 associated with the sequence `PLLPIFFCL`
Data returned: 637

Data request: Identify IC50 associated with the sequence `MMWYWGPSL`
Data returned: 54

Data request: Identify IC50 associated with the sequence `ILLLCLIFL`
Data returned: 1530

Data request: Identify IC50 associated with the sequence `NLSWLSLDV`
Data returned: 50
